Assay: sensitizers of A549 cells to miR-34 induction, primary screen, imaging, A549 dox-inducible miR-34, nuclei and caspase counts (AID 1347080)
Conditions: A549 miR-34 inducible, Hoechst nuclei count, 48 h; measured here: total cells without miR-34 induction
PROPERTY_NAME: cell count

// solved cases for cell count follow
molecule=Cc1[nH]c2ccc(Cl)cc2c1C1=CCNCC1 result=8550
molecule="COC1CCC2NC(C(=O)c3ccccc3)CC2C1 (stereo not given)" result=1320
molecule="CCOc1ccccc1-n1c(C(C)N2CCN(C(=O)COc3ccc(Cl)cc3)CC2)nc2ccccc2c1=O (stereo not given)" result=6610
molecule=C=C1C/C(=C/C)C(=O)O[C@@H]2CCN3CC=C(COC(=O)[C@]1(C)O)[C@H]23 result=10800
molecule=CC(=O)OCC1=C(C(=O)[O-])N2C(=O)[C@@H](NC(=O)CCC[C@@H](N)C(=O)[O-])[C@H]2SC1.[Zn+2] result=10000

Given item COC1=CC(=O)O[C@@H](/C=C/c2ccccc2)C1 , the value recorded as its cell count is 9920

Given item NCCc1c[nH]c2ccccc12 , the value recorded as its cell count is 9110

Given item CCCCC/C=C\C/C=C\C/C=C\C/C=C\CCCC(=O)Nc1cccc([N+](=O)[O-])c1 , the value recorded as its cell count is 5590

Given item O=C(O)Cc1cccnc1C(=O)O , the value recorded as its cell count is 8970

Given item O=C(NC(=O)c1c(F)cccc1F)Nc1cc(Cl)c(OC(F)(F)C(F)C(F)(F)F)cc1Cl (stereo not given) , the value recorded as its cell count is 6820

Given item C=C1C[C@@H]2[C@@H](CC[C@@]3(C)C(=O)CC[C@@H]23)[C@@]2(C)C=CC(=O)C=C12 , the value recorded as its cell count is 7540

Given item C=C1[C@@H]2CC[C@H]3[C@]4(C)C[C@H](O[C@H]5O[C@H](CO)[C@@H](OS(=O)(=O)O)[C@H](OS(=O)(=O)O)[C@H]5OC(=O)CC(C)C)C[C@@H](C(=O)O)[C@H]4CC[C@]3(C2)[C@H]1O , the value recorded as its cell count is 10100

* * *

The entries below are paired with their reported tube area decrease.
Experiment: inhibition of endothelial tube formation, primary screen, imaging, VEGF stimulated, CD31 staining, tube area, NPC library (AID 1117340)
Details: VEGF-stimulated ADSC/ECFC co-culture, at 10 µM, stronger effect = higher value
Dear colleague, please return just the value in %, with no unit written.

// solved cases for tube area decrease follow
compound=Nc1ccc(N)cc1 result_unit=% quantitative_readout=-29.4
compound=Nc1ccc([As](=O)(O)O)cc1 result_unit=% quantitative_readout=-12.5
compound="CC(Cc1ccccc1)NCc1ccccc1Cl (centres undefined)" result_unit=% quantitative_readout=-19.5
compound=CCN(CC)N(O)N=O result_unit=% quantitative_readout=-3.9
compound="CC(Cc1ccccc1)NC=O (centres undefined)" result_unit=% quantitative_readout=1.3
compound="CC(C)NCC(O)c1ccc(N)c(C#N)c1 (centres undefined)" result_unit=% quantitative_readout=-6.6
compound="CCCC[N+]1(C)[C@@H]2CC(OC(=O)[C@H](CO)c3ccccc3)C[C@H]1[C@@H]1O[C@@H]12 (some centres undefined)" result_unit=% quantitative_readout=-20.3
compound="NCC(O)c1cccc(O)c1 (centres undefined)" result_unit=% quantitative_readout=-16.5
compound="CCOC(=O)NC(O)C(Cl)(Cl)Cl (centres undefined)" result_unit=% quantitative_readout=-20.4
compound="CCN1CCCC1CNC(=O)C(O)(c1ccccc1)c1ccccc1 (centres undefined)" result_unit=% quantitative_readout=-2.9

Given item C[C@]12CCC(=O)C=C1C=C[C@@H]1[C@H]2CC[C@@]2(C)[C@@H]1CC[C@@]2(O)CCC(=O)O , the value recorded as its tube area decrease is 2

Given item CN1CCc2cc(Cl)c(O)cc2[C@H]2c3ccccc3CC[C@@H]21 , the value recorded as its tube area decrease is 24.1

Given item CC(NC(C)(C)C)C(=O)c1cccc(Cl)c1 (centres undefined) , the value recorded as its tube area decrease is 9.3

Given item Oc1ccc([C@H]2CNCc3c2ccc(O)c3O)cc1O , the value recorded as its tube area decrease is 13.1

Given item Cc1nnc2n1-c1sc(CCc3ccc(CC(C)C)cc3)cc1C(c1ccccc1Cl)=NC2C (centres undefined) , the value recorded as its tube area decrease is 48.1

Given item COc1cc(N)c(Cl)cc1C(=O)NC1CN2CCC1CC2 (centres undefined) , the value recorded as its tube area decrease is -1.2

Given item Cc1ncc(CNC(=O)N(CCCl)N=O)c(N)n1 , the value recorded as its tube area decrease is 28.9

Given item Fc1ccc(C(OCCN2CCN(CCCc3ccccc3)CC2)c2ccc(F)cc2)cc1 , the value recorded as its tube area decrease is 30.2

Given item Nc1ccccc1 , the value recorded as its tube area decrease is -9.5

Given item NNc1ccccc1 , the value recorded as its tube area decrease is 26.7

Given item C[C@H]1O[C@@H](O[C@H]2[C@@H](O)C[C@H](O[C@H]3[C@@H](O)C[C@H](O[C@H]4CC[C@@]5(C)[C@H](CC[C@@H]6[C@@H]5CC[C@]5(C)[C@@H](C7=CC(=O)OC7)CC[C@]65O)C4)O[C@@H]3C)O[C@@H]2C)C[C@H](O)[C@@H]1O , the value recorded as its tube area decrease is 112

Given item C[C@]12C[C@@H]3S[C@H]3C[C@@H]1CC[C@H]1[C@H]3CC[C@@H](O)[C@@]3(C)CC[C@@H]12 , the value recorded as its tube area decrease is 10.4

Given item CC(C)c1cccc(C(C)C)c1O , the value recorded as its tube area decrease is 31

Given item N#CC(C#N)=Cc1ccc(O)c(O)c1 , the value recorded as its tube area decrease is 17.4
